- System: Primary DRG cells
- assay_method_text: Neurite outgrowth assay (group A), paclitaxel-induced neurotoxicity
- Format: cell-based, C57BL/6 J mice
- condition_summary: difference between compound 1 µM + paclitaxel 0.05 µM and paclitaxel 0.05 µM alone
metric_name: Neurite outgrowth (%) A-B (extent of protection)
# number only, unit % dropped from output

>  <compound>
COC(=O)CCOCCCn1cc(CNc2nc(NC3CCN(Cc4ccc(C#N)cc4)CC3)cc(N3CCOCC3)n2)nn1

>  <measured_on>
Primary DRG cells

>  <unit_symbol>
%

>  <assay_value>
3

$$$$
>  <compound>
CCn1nnc(CNc2nc(N3CCOCC3)cc(N3CCOCC3)n2)n1

>  <measured_on>
Primary DRG cells

>  <unit_symbol>
%

>  <assay_value>
5

$$$$
>  <compound>
OCCCn1cc(CNc2nc(NC3CCNCC3)cc(N3CCCCC3)n2)nn1

>  <measured_on>
Primary DRG cells

>  <unit_symbol>
%

>  <assay_value>
5

$$$$
>  <compound>
CCn1nnc(CNc2nc(NC3CCN(CCC(=O)OC)CC3)cc(N3CCOCC3)n2)n1

>  <measured_on>
Primary DRG cells

>  <unit_symbol>
%

>  <assay_value>
3

$$$$

## Task Value lookup for Neurite outgrowth (%) A-B (extent of protection); key = CC(C)(O)CCn1cc(CNc2nc(NC3CCN(CCP(=O)(O)O)CC3)cc(N3CCOCC3)n2)nn1
## Result 4

## Task Can you look up the measured Neurite outgrowth (%) A-B (extent of protection) of COCCCn1cc(CNc2nc(NC3CCNCC3)cc(N3CCOCC3)n2)nn1 for me?
## Result 3

## Task Would you mind telling me what Neurite outgrowth (%) A-B (extent of protection) value was observed for CN1CCN(c2cc(NC3CCNCC3)nc(NCc3cn(CCCO)nn3)n2)CC1 ?
## Result 3

## Task Recorded Neurite outgrowth (%) A-B (extent of protection) for O=P(O)(O)CCN1CCC(Nc2cc(N3CCOCC3)nc(NCc3cn(CCCCO)nn3)n2)CC1 , please?
## Result 11

## Task For the compound CC(C)NCCCn1cc(CNc2nc(NC3CCNCC3)cc(N3CCOCC3)n2)nn1 , what Neurite outgrowth (%) A-B (extent of protection) is on record?
## Result 3

## Task Request the reported Neurite outgrowth (%) A-B (extent of protection) associated with COC(=O)CCOCCCn1cc(CNc2nc(NC3CCN(CCC(=O)OC)CC3)cc(N3CCOCC3)n2)nn1
## Result 5

## Task Entry OCCCc1cc(CNc2nc(NC3CCNCC3)cc(N3CCOCC3)n2)no1 has what Neurite outgrowth (%) A-B (extent of protection)?
## Result 5

## Task // returns reported Neurite outgrowth (%) A-B (extent of protection) for input CCn1nnc(CNc2nc(NC3CCN(CCC(=O)O)CC3)cc(N3CCOCC3)n2)n1
## Result 6

----------
- System: Primary DRG cells
- assay_method_text: Neurite outgrowth assay (group A), paclitaxel-induced neurotoxicity
- Type: cell-based, C57BL/6 J mice
- condition_summary: difference between compound 1 µM + paclitaxel 0.05 µM and paclitaxel 0.05 µM alone
Assign labels as follows, please: t for Neurite outgrowth (%) A-B (extent of protection) below 3%; f for Neurite outgrowth (%) A-B (extent of protection) equal to or exceeding 3%.

See these solved cases before continuing.
>  <molecule>
O=P(O)(O)CCN1CCC(Nc2cc(N3CCOCC3)nc(NCc3cn(CCO)nn3)n2)CC1

>  <measured_on>
Primary DRG cells

>  <assigned_category>
f

$$$$
>  <molecule>
O=P(O)(O)CCN1CCC(Nc2cc(N3CCOCC3)nc(NCc3cn(CCCO)nn3)n2)CC1

>  <measured_on>
Primary DRG cells

>  <assigned_category>
f

$$$$
>  <molecule>
OCCCn1cc(CNc2cc(NC3CCNCC3)nc(NCc3cn(CCCO)nn3)n2)nn1

>  <measured_on>
Primary DRG cells

>  <assigned_category>
f

$$$$
>  <molecule>
COC(=O)CCOCCCn1cc(CNc2nc(NC3CCN(Cc4cccc(C(=O)OC)c4)CC3)cc(N3CCOCC3)n2)nn1

>  <measured_on>
Primary DRG cells

>  <assigned_category>
t

$$$$
>  <molecule>
O=P(O)(O)CCN1CCC(Nc2cc(N3CCCCC3)nc(NCc3cn(CCCO)nn3)n2)CC1

>  <measured_on>
Primary DRG cells

>  <assigned_category>
f

$$$$

## Task Does the reported Neurite outgrowth (%) A-B (extent of protection) of CC(O)Cn1cc(CNc2nc(NC3CCNCC3)cc(N3CCOCC3)n2)nn1 (centres unmarked) stay below 3%?
## Result t
